Organism: Rattus norvegicus
Assay: Compound was evaluated by measuring the ability to influence stimulated basal [3H]-IP formation in adult rat cerebral cortical slices.
Format: functional
pEC50: −log10 of the molar value.

>  <molecule>
N[C@@]1(C(=O)O)CC[C@H]2[C@H](C(=O)O)[C@H]21 (stereo in doubt; (+)-9)

>  <readingQualifier>
<

>  <pEC50>
3.52

$$$$
>  <molecule>
N[C@H](C(=O)O)[C@H]1C[C@@H]1C(=O)O

>  <readingQualifier>
=

>  <pEC50>
4.60

$$$$

---

Attribute: IC50
Target: Glutamate receptor ionotropic, kainate
Assay: Inhibitory concentration against radioligand [3H]-Kainate binding to Ionotropic glutamate receptor kainate in rat forebrain membranes

>  <molecule>
N[C@H](C(=O)O)[C@H]1C[C@@H]1C(=O)O

>  <assayTarget>
Glutamate receptor ionotropic, kainate

>  <IC50>
> 100 µM

$$$$
>  <molecule>
N[C@@]1(C(=O)O)CC[C@H]2[C@H](C(=O)O)[C@H]21 (stereo in doubt; (-)-9)

>  <assayTarget>
Glutamate receptor ionotropic, kainate

>  <IC50>
> 100 µM

$$$$
>  <molecule>
N[C@]1(C(=O)O)CC[C@H]2[C@H](C(=O)O)[C@H]21 (racemic)

>  <assayTarget>
Glutamate receptor ionotropic, kainate

>  <IC50>
> 100 µM

$$$$
